Reference source: patent US5795907A

target: gastrin (Rattus norvegicus, UniProt P30553); construct: The stomach was lowered into a jacketed organ bath containing 40 ml of buffered solution; from tissue; host or cells: isolated perfused whole stomach of immature rats (ca. 21 days old); experiment: gastrin antagonist activity in an immature rat stomach assay (pentagastrin-stimulated acid secretion); settings: cumulative pentagastrin dose-response curves after 60 min with drug, read-out: Gastrin pKB (converted)
Sequence (P30553 whole entry, the tested form may be a part): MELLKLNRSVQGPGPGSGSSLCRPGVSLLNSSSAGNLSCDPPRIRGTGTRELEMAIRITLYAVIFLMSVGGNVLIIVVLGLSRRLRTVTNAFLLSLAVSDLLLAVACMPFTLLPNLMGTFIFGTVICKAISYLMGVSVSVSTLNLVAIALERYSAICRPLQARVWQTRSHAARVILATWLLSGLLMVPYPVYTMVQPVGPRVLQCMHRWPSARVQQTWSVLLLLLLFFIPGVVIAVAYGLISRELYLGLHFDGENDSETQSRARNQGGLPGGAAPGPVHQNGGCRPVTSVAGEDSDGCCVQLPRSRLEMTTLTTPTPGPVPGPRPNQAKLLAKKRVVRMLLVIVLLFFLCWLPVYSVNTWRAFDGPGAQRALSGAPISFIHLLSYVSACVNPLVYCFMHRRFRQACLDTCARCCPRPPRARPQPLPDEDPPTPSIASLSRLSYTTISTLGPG
Kb values for the compounds below.
property name: Kb (nM)

compound	study system	observed
O=C(NS(=O)(=O)c1cccc(NC(=O)[C@H](Cc2ccccc2)NC(=O)c2cc3[nH]cnc3cc2C(=O)NCC23CC4CC(CC(C4)C2)C3)c1)c1ccccc1 [Example 139]	gastrin (Rattus norvegicus, UniProt P30553)	79.4
CC(C)(C)C(=O)OCOC(=O)c1cc(NC(=O)[C@H](Cc2ccccc2)NC(=O)c2cc3cc[nH]c3cc2C(=O)NCC23CC4CC(CC(C4)C2)C3)cc(C(=O)OCOC(=O)C(C)(C)C)c1 [Example 33]	gastrin (Rattus norvegicus, UniProt P30553)	20
C[C@H](NC(=O)c1cc2cc[nH]c2cc1C(=O)NCC12CC3CC(CC(C3)C1)C2)C(=O)Nc1cc(C(=O)O)cc(C(=O)O)c1 [Example 47]	gastrin (Rattus norvegicus, UniProt P30553)	5.01
CN(C(=O)c1cc2[nH]cnc2cc1C(=O)NCC12CC3CC(CC(C3)C1)C2)[C@@H](Cc1ccccc1)C(=O)Nc1cc(C(=O)O)cc(C(=O)O)c1 [Example 86]	gastrin (Rattus norvegicus, UniProt P30553)	20
C[C@@H](NC(=O)[C@H]1CCCN1C(=O)c1cc2ccccc2cc1C(=O)N(C)CC12CC3CC(CC(C3)C1)C2)C(=O)O [Example 12]	gastrin (Rattus norvegicus, UniProt P30553)	1260
O=C(NCC12CC3CC(CC(C3)C1)C2)c1cc2cc[nH]c2cc1C(=O)N[C@@H](Cc1ccccc1)C(=O)Nc1cc(-c2nn[nH]n2)cc(-c2nn[nH]n2)c1 [Example 105]	gastrin (Rattus norvegicus, UniProt P30553)	3.16
C[C@H](NC(=O)[C@H]1CCCN1C(=O)c1cc2ccccc2cc1C(=O)N(C)CC12CC3CC(CC(C3)C1)C2)C(=O)O [Example 13]	gastrin (Rattus norvegicus, UniProt P30553)	398
O=C(O)c1cc(NC(=O)C(Cc2ccc(F)cc2F)NC(=O)c2cc3[nH]cnc3cc2C(=O)NCC23CC4CC(CC(C4)C2)C3)cc(C(=O)O)c1 (racemic) [Example 85]	gastrin (Rattus norvegicus, UniProt P30553)	1.26
COC(=O)[C@H](C)NC(=O)c1cc2ccccc2cc1C(=O)NCC12CC3CC(CC(C3)C1)C2 [Example 2]	gastrin (Rattus norvegicus, UniProt P30553)	1000
O=C(NCC12CC3CC(CC(C3)C1)C2)c1cc2ccccc2cc1C(=O)N1CCC[C@H]1C(=O)O [Example 4]	gastrin (Rattus norvegicus, UniProt P30553)	501
COC(=O)[C@H]1CCCN1C(=O)c1cc2ccccc2cc1C(=O)NCC12CC3CC(CC(C3)C1)C2 [Example 7]	gastrin (Rattus norvegicus, UniProt P30553)	398
O=C(NCC12CC3CC(CC(C3)C1)C2)c1cc2nc[nH]c2cc1C(=O)N[C@@H](Cc1ccccc1)C(=O)Nc1cccc(S(=O)(=O)NC(=O)C(F)(F)F)c1 [Example 128]	gastrin (Rattus norvegicus, UniProt P30553)	2.51

====

Target: CCKB receptor (Mus musculus, UniProt P56481)
Construct: The cortex was dissected, weighed and homogenised in 40ml ice-cold buffer; tissue Charles River (supplier of the CD1 mice); host or cells: cerebral cortex membranes of male CD1 mice
Sequence (P56481 whole entry): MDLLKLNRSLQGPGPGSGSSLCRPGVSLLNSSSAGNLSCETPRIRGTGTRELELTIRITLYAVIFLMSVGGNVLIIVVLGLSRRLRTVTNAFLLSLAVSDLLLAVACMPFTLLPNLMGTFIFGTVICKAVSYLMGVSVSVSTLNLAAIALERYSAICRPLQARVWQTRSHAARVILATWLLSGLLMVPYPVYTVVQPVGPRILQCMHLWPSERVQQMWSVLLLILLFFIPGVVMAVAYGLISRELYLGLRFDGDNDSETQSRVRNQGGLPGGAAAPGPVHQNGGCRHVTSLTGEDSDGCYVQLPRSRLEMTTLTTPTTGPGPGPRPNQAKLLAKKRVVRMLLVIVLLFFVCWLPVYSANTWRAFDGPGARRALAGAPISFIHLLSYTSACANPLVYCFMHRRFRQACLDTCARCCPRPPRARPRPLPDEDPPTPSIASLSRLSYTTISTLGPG
Assay: CCKB receptor radioligand binding assay in mouse cortical membranes ([125I]-CCK8S)
Conditions: [125I]-CCK8S 200 pM, 150 min at 21±3°, read-out: CCKB pKi (converted)
Experimental: The compounds of the examples were tested for binding at the CCKB receptor in mouse cortical membranes by means of a radioligand binding assay. The procedure was as follows: The whole brains from male mice (CD1 22-25 g; Charles River) were removed and placed in ice-cold buffer (pH7.2 @ 21±3°) of the following composition (mM); 10 HEPES, 130 NaCl, 4.7 KCl, 5 MgCl2, 1 EDTA and containing 0.25g.^-1 bacitracin. […]
Ki values for the compounds below.

compound	Ki
O=C(NCC12CC3CC(CC(C3)C1)C2)c1cc2[nH]ccc2cc1C(=O)N[C@@H](Cc1ccccc1)C(=O)Nc1cc(-c2nn[nH]n2)cc(-c2nn[nH]n2)c1	1.26 nM
O=C(NCC12CC3CC(CC(C3)C1)C2)c1cc2nc[nH]c2cc1C(=O)N[C@@H](Cc1ccccc1)C(=O)NCc1ccc(F)cc1	501 nM
O=C(O)c1cc(NC(=O)[C@H](Cc2ccccc2)NC(=O)c2cc3cc[nH]c3cc2C(=O)NCC2CN3CCC2CC3)cc(C(=O)O)c1 (stereo partly shown)	1260 nM
O=C(O)c1cc(NC(=O)[C@H](Cc2ccccc2)NC(=O)c2cc3cc[nH]c3cc2C(=O)NCC2CCC(O)CC2)cc(C(=O)O)c1 (single isomer, unassigned) [Example 110]	398 nM
Nc1ccc(C[C@H](NC(=O)c2cc3[nH]cnc3cc2C(=O)NCC23CC4CC(CC(C4)C2)C3)C(=O)Nc2cc(C(=O)O)cc(C(=O)O)c2)cc1	63.1 nM
COC(=O)[C@@H](C)NC(=O)c1cc2ccccc2cc1C(=O)NCC12CC3CC(CC(C3)C1)C2	5010 nM
O=C(NCC12CC3CC(CC(C3)C1)C2)c1cc2nc[nH]c2cc1C(=O)N[C@@H](Cc1ccccc1)C(=O)Nc1cc(C=NO)cc(C=NO)c1	200 nM

====

Ki values for the compounds below.
Molecular target: CCKA (Cavia porcellus, UniProt Q63931)
Construct: The pancreatata were homogenised in 40 ml ice-cold HEPES buffer using a polytron; from tissue; host or cells: pancreas membranes of male Dunkin Hartley guinea-pigs
Sequence (Q63931 1-430): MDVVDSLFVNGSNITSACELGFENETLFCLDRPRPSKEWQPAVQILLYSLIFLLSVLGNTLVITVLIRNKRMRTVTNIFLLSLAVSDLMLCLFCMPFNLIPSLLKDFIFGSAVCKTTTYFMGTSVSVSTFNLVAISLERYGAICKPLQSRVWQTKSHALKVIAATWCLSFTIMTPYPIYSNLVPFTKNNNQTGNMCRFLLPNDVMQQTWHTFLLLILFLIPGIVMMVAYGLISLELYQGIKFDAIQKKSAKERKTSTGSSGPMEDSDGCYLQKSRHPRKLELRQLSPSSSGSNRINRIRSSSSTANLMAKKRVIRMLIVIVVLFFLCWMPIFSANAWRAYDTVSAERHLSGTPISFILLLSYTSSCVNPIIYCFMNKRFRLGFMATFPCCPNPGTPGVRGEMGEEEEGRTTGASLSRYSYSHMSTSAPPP
Assay: CCKA radioligand binding assay in guinea-pig pancreas membranes ([125I]-CCK8(S))
Conditions: PD134,308 present, 150 minutes at 21±3°, read-out: CCKA pKi (converted)

compound	reading qualifier	Ki [µM]
O=C(O)c1cc(NC(=O)[C@H](Cc2ccccc2)NC(=O)c2cc3[nH]ccc3cc2C(=O)NCC23CC4CC(CC(C4)C2)C3)cc(C(=O)O)c1	=	3.16
CC(C)(C)C(=O)OCOC(=O)c1cc(NC(=O)[C@H](Cc2ccccc2)NC(=O)c2cc3cc[nH]c3cc2C(=O)NCC23CC4CC(CC(C4)C2)C3)cc(C(=O)OCOC(=O)C(C)(C)C)c1	=	6.31
O=C(NCC12CC3CC(CC(C3)C1)C2)c1cc2nc[nH]c2cc1C(=O)N[C@@H](Cc1ccccc1)C(=O)Nc1ccc(F)cc1	=	1.26
CCCCc1nc2cc(C(=O)NCC34CC5CC(CC(C5)C3)C4)c(C(=O)N[C@@H](Cc3ccccc3)C(=O)Nc3cc(C(=O)O)cc(C(=O)O)c3)cc2[nH]1	=	3.16
O=C(O)c1cc(NC(=O)[C@@H](Cc2ccccc2)NC(=O)c2cc3[nH]cnc3cc2C(=O)NCC23CC4CC(CC(C4)C2)C3)cc(C(=O)O)c1	=	6.31
O=C(O)c1cc(NC(=O)[C@H](Cc2ccccc2)NC(=O)c2cc3cc[nH]c3cc2C(=O)NCC2CN3CCC2CC3)cc(C(=O)O)c1 (stereo partly shown)	>	10
O=C(O)c1cc(NC(=O)C(Cc2ccc(F)cc2F)NC(=O)c2cc3[nH]cnc3cc2C(=O)NCC23CC4CC(CC(C4)C2)C3)cc(C(=O)O)c1 (racemic)	=	3.16
Cc1nc2cc(C(=O)NCC34CC5CC(CC(C5)C3)C4)c(C(=O)N[C@@H](Cc3ccccc3)C(=O)Nc3cc(C(=O)O)cc(C(=O)O)c3)cc2[nH]1	>	10
O=C(O)c1cc(NC(=O)[C@H](Cc2ccc(O)cc2)NC(=O)c2cc3[nH]cnc3cc2C(=O)NCC23CC4CC(CC(C4)C2)C3)cc(C(=O)O)c1	=	2.51
O=C(O)c1cc(NC(=O)[C@H](Cc2cccc(F)c2)NC(=O)c2cc3[nH]cnc3cc2C(=O)NCC23CC4CC(CC(C4)C2)C3)cc(C(=O)O)c1	=	5.01
NC(=O)c1cc(NC(=O)[C@H](Cc2ccccc2)NC(=O)c2cc3[nH]cnc3cc2C(=O)NCC23CC4CC(CC(C4)C2)C3)cc(C(N)=O)c1	=	1.58
O=C(NCC12CC3CC(CC(C3)C1)C2)c1cc2nc[nH]c2cc1C(=O)N[C@@H](Cc1ccccc1)C(=O)Nc1cc(-c2nn[nH]n2)cc(-c2nn[nH]n2)c1	=	0.794
O=C(NCC12CC3CC(CC(C3)C1)C2)c1cc2ccccc2cc1C(=O)N1CCC[C@H]1C(=O)O	=	3.98
O=C(NCC12CC3CC(CC(C3)C1)C2)c1cc2cc[nH]c2cc1C(=O)N[C@@H](Cc1ccccc1F)C(=O)Nc1cc(-c2nn[nH]n2)cc(-c2nn[nH]n2)c1	=	0.2
O=C(O)CNC(=O)[C@H]1CCCN1C(=O)c1cc2[nH]cnc2cc1C(=O)NCC12CC3CC(CC(C3)C1)C2	>	10
COC(=O)[C@@H](C)NC(=O)c1cc2ccccc2cc1C(=O)NCC12CC3CC(CC(C3)C1)C2	=	1
